All figures here come from patent US8119624B2.

Target Or System: Full-length glucokinase (beta cell isoform) (Homo sapiens, UniProt P35557)
Construct: Full-length glucokinase (beta cell isoform) was His-tagged at N-terminus; His tag (N); made in house
Protocol: Glucokinase biochemical assay (PK/LDH-coupled, NADH depletion at 340 nm): % activation, EC50, % max activation
Condition Description: 5 mM glucose; fitted maximum activation; read-out: % Max Activation
Method: Full-length glucokinase (beta cell isoform) was His-tagged at N-terminus and purified by a Ni column followed by size exclusion chromatography. Glucose was obtained from Calbiochem, and other reagents were from Sigma. […] Glucokinase was added to the buffer mixture to initiate the reaction in the presence and absence of compound. Reaction was monitored by absorbance at 340nm due to the depletion of NADH. The initial reaction velocity was measured by the slope of a linear time course of 200-900 sec. […]
Measured Property: Emax (%)

I: Cc1cc2c(Oc3ccc(S(C)(=O)=O)cc3)cc(C(=O)Nc3ccc(F)cn3)cc2o1 [Example 256]
II: Cn1ccc(NC(=O)c2cc(Oc3ccc(S(C)(=O)=O)c(F)c3)c3c(c2)OC(C)(CO)C3)n1 (stereo not shown) [Example 232]
III: Cn1ccc(NC(=O)c2cc(Oc3ccc(C(=O)N4CC[C@@H](F)C4)c(F)c3)c3c(c2)OC(C)(C)C3)n1 [Example 58]
IV: Cc1ccc(NC(=O)c2cc(Oc3ccc(C(=O)N(C)C)cc3)c3oc(C)nc3c2)nc1 [Example 370]
V: Cc1cc(NC(=O)c2cc(Oc3ccc(C(=O)N(C)C)cc3)c3c(c2)OC(C)(C)C3)no1 [Example 154]
# descending Emax order for the listed molecules # format: label list in the order the request specifies
II, I, III, V, IV
(II: 184%, I: 126%, III: 88%, V: 54%, IV: 3.5%)

----------
Target Or System: Full-length glucokinase (beta cell isoform) (Homo sapiens)
Construct: Full-length glucokinase (beta cell isoform) was His-tagged at N-terminus; His tag (N); made in house
Protocol: Glucokinase biochemical assay (PK/LDH-coupled, NADH depletion at 340 nm): % activation, EC50, % max activation
Condition Description: 5 mM glucose; GK activation; read-out: EC50
Method: Full-length glucokinase (beta cell isoform) was His-tagged at N-terminus and purified by a Ni column followed by size exclusion chromatography. Glucose was obtained from Calbiochem, and other reagents were from Sigma. […] Glucokinase was added to the buffer mixture to initiate the reaction in the presence and absence of compound. Reaction was monitored by absorbance at 340nm due to the depletion of NADH. The initial reaction velocity was measured by the slope of a linear time course of 200-900 sec. […]
pEC50: −log10 of the molar value.
Measured Property: pEC50

Solved entries:
>>> df
                                   molecule  assay_value
0  Cc1cc2c(Oc3ccc(C(=O)N(C)C)nc3)cc(C(=O)Nc3cnn(C)n3)cc2o1 [Example 278]         6.33
1  COCC1(C)Cc2c(Oc3ccc(C(=O)N4CCC4)c(F)c3)cc(C(=O)Nc3ccn(C)n3)cc2O1 (centres unmarked) [Example 242]         7.20
2  CC(Oc1cc(C(=O)Nc2ccn(C)n2)cc2c1CC(C)(C)O2)c1ccccn1 (centres unmarked) [Example 81]         5.28
3  Cc1ccc(NC(=O)c2cc(Oc3ccc(S(C)(=O)=O)cc3)c3cc(CO)oc3c2)nc1 [Example 316]         6.39
4  Cc1cc2c(Oc3ccc(S(=O)(=O)N(C)C)c(F)c3)cc(C(=O)Nc3cnn(C)n3)cc2o1 [Example 306]         6.48

I: Cn1ccc(NC(=O)c2cc(Oc3ccc(S(C)(=O)=O)cc3Cl)c3c(c2)OC(C)(C)C3)n1 [Example 137]
II: CC1Cc2c(cc(Oc3ccc(S(C)(=O)=O)cc3)cc2C(=O)Nc2ccccn2)O1 (centres unmarked) [Example 1]
Of the two listed items, I and II , which carries the larger pEC50 figure? Provide the label of your selected option as the answer.
I

----------
Target Or System: Full-length glucokinase (beta cell isoform) (Homo sapiens, UniProt P35557)
Construct: Full-length glucokinase (beta cell isoform) was His-tagged at N-terminus; His tag (N); made in house
Sequence (P35557 1-465): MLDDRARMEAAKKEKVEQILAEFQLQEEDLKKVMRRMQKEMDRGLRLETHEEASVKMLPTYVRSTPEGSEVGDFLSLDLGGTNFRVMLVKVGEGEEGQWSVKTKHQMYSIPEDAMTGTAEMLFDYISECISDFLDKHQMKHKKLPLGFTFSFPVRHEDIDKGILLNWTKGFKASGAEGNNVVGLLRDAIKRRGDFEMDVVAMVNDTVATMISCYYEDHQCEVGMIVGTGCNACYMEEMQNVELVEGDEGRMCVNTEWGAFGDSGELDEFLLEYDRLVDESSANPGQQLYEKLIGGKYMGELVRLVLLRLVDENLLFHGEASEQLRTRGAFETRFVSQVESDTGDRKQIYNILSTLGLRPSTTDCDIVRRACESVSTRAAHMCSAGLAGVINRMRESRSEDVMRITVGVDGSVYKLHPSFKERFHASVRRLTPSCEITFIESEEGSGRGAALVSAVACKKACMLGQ
Protocol: Glucokinase biochemical assay (PK/LDH-coupled, NADH depletion at 340 nm): % activation, EC50, % max activation
Condition Description: 5 mM glucose; GK activation; read-out: EC50
Measured Property: EC50 (µM)

>>> print(df.to_string())
                                   compound  assay_value
0  Cc1ccc(NC(=O)c2cc(OC(C)C)cc3oc(-c4ccccc4)cc23)nc1         0.16
1  Cn1ncc(NC(=O)c2cc(Oc3ccc(S(C)(=O)=O)c(Cl)c3)c3c(c2)OC(C)(C)C3)n1         0.32
2  COc1ccc(CC(C)Oc2cc(C(=O)Nc3ccn(C)n3)cc3c2CC(C)(C)O3)cc1 (centres unmarked)          2.1
3  Cc1cc2c(Oc3ccc(S(C)(=O)=O)cc3)cc(C(=O)Nc3ccn(C)n3)cc2o1          1.3

A: CCc1ccc(NC(=O)c2cc(Oc3ccc(S(C)(=O)=O)cc3)c3cc(C)oc3c2)nc1
B: Cc1ccc(NC(=O)c2cc(Oc3ccc(S(C)(=O)=O)cc3)c3cc(C)sc3c2)nc1
C: CN(C)S(=O)(=O)c1cc(F)c(Oc2cc(C(=O)Nc3cnn(C)n3)cc3c2CC(C)(C)O3)cc1F
D: Cc1ccc(NC(=O)c2cc(Oc3ccc(S(=O)(=O)N4CCC4)cc3)c3c(c2)OC(C)(C)C3)nc1
Descending sort on EC50 required. In your reply, arrange the labels in the requested order.
A, C, B, D

----------
Target Or System: Full-length glucokinase (beta cell isoform) (Homo sapiens)
Construct: Full-length glucokinase (beta cell isoform) was His-tagged at N-terminus; His tag (N); made in house
Protocol: Glucokinase biochemical assay (PK/LDH-coupled, NADH depletion at 340 nm): % activation, EC50, % max activation
Condition Description: compound at 10 uM; 5 mM glucose, 1 mM ATP, room temperature; read-out: % Activation at 10 uM
Measured Property: activation at 10 µM (%)

a: CC(C)CN1CCc2c(Oc3ccc(S(C)(=O)=O)cc3)cc(C(=O)Nc3ccn(C)n3)cc2C1=O
b: Cc1ccc(NC(=O)c2cc(Oc3ccc(S(C)(=O)=O)cc3)c3c(c2)C(=O)N(C)C3)nc1
c: CN(CC#N)C(=O)c1ccc(Oc2cc(C(=O)Nc3ccn(C)n3)cc3c2CC(C)(C)O3)cn1
Rank the 3 molecules: largest activation at 10 µM first, smallest last. Submit the labels in the order that the ranking request calls for.
c, b, a

----------
Target Or System: Full-length glucokinase (beta cell isoform) (Homo sapiens, UniProt P35557)
Construct: Full-length glucokinase (beta cell isoform) was His-tagged at N-terminus; His tag (N); made in house
Protocol: Glucokinase biochemical assay (PK/LDH-coupled, NADH depletion at 340 nm): % activation, EC50, % max activation
Condition Description: 5 mM glucose; GK activation; read-out: EC50
Measured Property: EC50 (nM)

>>> print(df.to_string())
                                   molecule  assay_value
0  Cc1ncsc1CCOc1cc(C(=O)Nc2ccn(C)n2)cc2c1CC(C)(C)O2         4300
1  CNC(=O)c1ncc(Oc2cc(C(=O)Nc3ccn(C)n3)cc3c2CC(C)(C)O3)cc1F          450
2  Cc1cc2c(Oc3ccc(S(=O)(=O)N4CCC4)cc3)cc(C(=O)Nc3ccn(C)n3)cc2o1          200
3  Cn1ccc(NC(=O)c2cc(Oc3ccc(C#N)cc3F)c3c(c2)OC(C)(C)C3)n1         2100

P: CCc1cc2c(Oc3ccc(S(C)(=O)=O)cc3)cc(C(=O)Nc3ccc(C)cn3)cc2o1
Q: Cn1ncc(NC(=O)c2cc(Oc3ccc(S(=O)(=O)C4CC4)cc3)c3c(c2)OC(C)(CO)C3)n1 (centres unmarked)
R: CN(C)C(=O)c1ccc(Oc2cc(C(=O)Nc3ccncn3)cc3c2CC(C)(C)O3)cc1
S: CN(C)C(=O)c1ccc(Oc2cc(C(=O)Nc3ccn(C)n3)cc3c2CC(C)(C)O3)nc1
Sort ascending by EC50. Rank the items, then write their labels in that order.
Q, R, S, P
